This collection of values is drawn from paper PMC9867208.

- PROCEDURE TEXT: Experimental lipophilicity by RP-TLC
- CONDITION DESCRIPTION: from RM0 by calibration curve Equation (3)
MEASURED PARAMETER: logPTLC (experimental lipophilicity)
// no unit, no text: just the number

CC(=O)c1ccc(Br)cc1 [C, 4-bromoacetophenone, reference compound]; 2.58
Clc1ccc(C(c2ccc(Cl)cc2)C(Cl)(Cl)Cl)cc1 [F, dichlorodiphenyltrichloroethane, reference compound]; 6.31
Cc1ccc2cccc(OC3=C(Cl)C(=O)c4ccccc4C3=O)c2n1; 3.73
CC(=O)Nc1ccccc1 [B, acetanilide, reference compound]; 1.19

Now for another entry.
Entry `O=C1C(Cl)=C(Oc2cccc3cccnc23)C(=O)c2ccccc21` needs its logPTLC (experimental lipophilicity) filled in; supply it. 3.23
